- runDescription: self-splicing fitness, log relative to wild type (ln ratio); higher = more splicing; Tetrahymena group I intron in knt gene, E. coli kanamycin selection, DiMSum; sequences stand for … in CUCUCU…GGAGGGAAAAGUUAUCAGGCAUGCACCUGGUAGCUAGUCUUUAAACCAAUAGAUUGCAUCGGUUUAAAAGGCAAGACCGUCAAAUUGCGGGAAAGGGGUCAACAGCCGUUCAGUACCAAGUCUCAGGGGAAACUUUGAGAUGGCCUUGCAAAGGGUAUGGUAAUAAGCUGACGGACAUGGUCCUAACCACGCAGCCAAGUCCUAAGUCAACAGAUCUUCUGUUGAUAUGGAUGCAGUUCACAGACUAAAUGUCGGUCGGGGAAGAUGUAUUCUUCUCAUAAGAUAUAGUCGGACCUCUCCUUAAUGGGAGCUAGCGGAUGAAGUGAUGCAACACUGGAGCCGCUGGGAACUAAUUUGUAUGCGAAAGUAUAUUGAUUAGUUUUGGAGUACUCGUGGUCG;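 further: selection with 25 µg/mL kanamycin versus none on LB agar overnight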
- measurementParameters: 30 °C
# reported self-splicing fitness (ln); entries follow

# residues, self-splicing fitness (ln)
records = [
    ("CGGCAGCAAUAUUACGAUUC", -2.62),
    ("UAACAGCAAUAUUACGGACG", -0.143),
    ("UUUGAGCAAUAUUACGUGGU", -4.12),
    ("GUAAAGCAAUAUUACGAGGC", -2.91),
    ("AUAAAGCAAUAUUACGUUCG", -0.321),
    ("CAGUAGCAAUAUUACGCAUG", -2.31),
    ("GAAUAGCAAUAUUACGACAG", -3.2),
    ("CACCAGCAAUAUUACGGGAG", -2.61),
    ("UGAGAGCAAUAUUACGAAUA", -2.76),
    ("AGUUAGCAAUAUUACGGAAU", -3.73),
    ("CUACAGCAAUAUUACGGCCA", -3),
    ("GCAGAGCAAUAUUACGCAAC", -1.53),
    ("UAGCAGCAAUAUUACGGGUU", -3.82),
    ("CAAGAGCAAUAUUACGUACG", -0.91),
    ("CCCAAGCAAUAUUACGCUUA", -3.38),
    ("UGAUAGCAAUAUUACGCUGU", -2.61),
    ("UCUUAGCAAUAUUACGUCAA", -2.43),
    ("GGCCAGCAAUAUUACGUUGC", -1.58),
    ("GUACAGCAAUAUUACGGCCC", -0.268),
    ("AUAAAGCAAUAUUACGUUGA", -2.1),
    ("UCUUAGCAAUAUUACGCAGG", -3.45),
    ("AGUUAGCAAUAUUACGGCGG", -0.53),
    ("UUUGAGCAAUAUUACGAGAG", -2.2),
    ("UUCUAGCAAUAUUACGCGAG", -2.97),
    ("CUGAAGCAAUAUUACGAUGG", -0.0919),
    ("CGUUAGCAAUAUUACGUUGA", -3.1),
    ("UAUCAGCAAUAUUACGCCGG", -0.251),
    ("ACUUAGCAAUAUUACGAUUU", -0.382),
    ("CCCGAGCAAUAUUACGGCCG", -4.1),
    ("AUGCAGCAAUAUUACGAUUU", -0.306),
    ("AUCCAGCAAUAUUACGAGGU", -3.37),
    ("ACACAGCAAUAUUACGUCUU", -1.17),
    ("UGCAAGCAAUAUUACGUUUU", -4.29),
    ("UGUGAGCAAUAUUACGGUUA", -2.47),
    ("GGGGAGCAAUAUUACGGCGU", -1.31),
    ("UAAGAGCAAUAUUACGCAAU", -3.35),
    ("UCUUAGCAAUAUUACGCAUA", -2.4),
    ("ACCGAGCAAUAUUACGGGCG", -1.64),
    ("CCAUAGCAAUAUUACGAGGG", -3.56),
    ("UUAGAGCAAUAUUACGUCAA", -1.59),
    ("CGCUAGCAAUAUUACGCAGA", -3.28),
    ("CCCAAGCAAUAUUACGCACA", -2.53),
    ("GUGAAGCAAUAUUACGAUCA", -0.337),
    ("GUACAGCAAUAUUACGGUAU", -4.07),
    ("AGAAAGCAAUAUUACGUUGC", -4),
    ("GUUUAGCAAUAUUACGCAUG", -2.59),
    ("GCUGAGCAAUAUUACGUUGU", -3.56),
    ("GGGAAGCAAUAUUACGCAAA", -1.9),
    ("CCGCAGCAAUAUUACGACUG", -3.17),
    ("GGAUAGCAAUAUUACGAGAG", -1.8),
    ("UGCCAGCAAUAUUACGUCAG", -2.49),
]
